Target: T1, NativeRPtag(large)_with_Tags_and_Cys (Thermoanaerobacter tengcongensis)
T1 construct: Unlabeled in anisotropy assays; coupled through the engineered N-terminal Cys to SulfoLink agarose or maleimide plates in column, pull-down and ELISA assays
T1 chain: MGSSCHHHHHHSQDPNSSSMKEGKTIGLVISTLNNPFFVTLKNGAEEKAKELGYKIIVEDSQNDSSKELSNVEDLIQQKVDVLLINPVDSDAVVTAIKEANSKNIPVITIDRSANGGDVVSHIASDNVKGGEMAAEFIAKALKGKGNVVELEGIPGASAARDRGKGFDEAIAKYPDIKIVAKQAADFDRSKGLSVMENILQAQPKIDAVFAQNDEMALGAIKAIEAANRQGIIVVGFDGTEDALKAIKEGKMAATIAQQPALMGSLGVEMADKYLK
Assay: fluorescence anisotropy, association kinetics
No end group written: not given here. *: point of attachment. RhodamineB = CCN(CC)c1ccc2c(-c3ccccc3C(=O)*)c3ccc(=[N+](CC)CC)cc-3oc2c1
Can you tell me kf (S to S*) for the items I'm about to list?
Give bare numbers, in min⁻¹.

1. RhodamineB-GEKIPNFIPAELKLITKENAQ (built here from the native peptide with the stated change) [RPtag(small) v20a]: 0.073
2. RhodamineB-GEKIPNFIPAELKLIAKENVQ [RPtag(small) t16a]: 0.071
3. RhodamineB-GEKIPNFIPAELKLITK [RPtag(small) Cd4]: 0.014

Field: kf (S to S*). Fill in for each record below.
1. RhodamineB-GEKIANFIPAELKLITKENVQ [RPtag(small) p5a]
2. RhodamineB-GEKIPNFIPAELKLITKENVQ (Synthetic peptide) [native RPtag(small)]

Reply:
1. 0.093
2. 0.092

Query: // lookup kf (S to S*) for RhodamineB-GEKIPNFIPAELKLITKANVQ [RPtag(small) e18a]
Reply: 0.054
